Below: a set of entries, each annotated with reported pEC50.
Target: UniProt Q9R1K6
Sequence (Q9R1K6 whole entry, the tested form may be a part): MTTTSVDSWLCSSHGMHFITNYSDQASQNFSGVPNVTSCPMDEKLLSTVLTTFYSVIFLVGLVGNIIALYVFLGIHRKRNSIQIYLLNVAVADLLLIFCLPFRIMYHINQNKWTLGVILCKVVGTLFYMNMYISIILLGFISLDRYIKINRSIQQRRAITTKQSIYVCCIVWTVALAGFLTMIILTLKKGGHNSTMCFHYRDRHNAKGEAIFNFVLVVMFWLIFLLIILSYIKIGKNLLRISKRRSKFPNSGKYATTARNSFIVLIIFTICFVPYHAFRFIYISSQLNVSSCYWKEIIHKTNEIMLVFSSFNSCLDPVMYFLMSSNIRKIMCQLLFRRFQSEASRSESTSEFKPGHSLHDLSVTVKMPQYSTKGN
Assay: Agonist activity at mouse GPR34 expressed in HEK293 cells co-transfected with AP-TGFalpha/Galphaq/i1 assessed as induction of ectodomain shedding of membrane bound AP-TGFalpha after 1 hr by p-NPP substrate based microplate reader analysis
pEC50: −log10 of the molar value.

Known pEC50 results, listed for orientation:
{"smiles-code": "CCCCCCCCCCCOc1ccccc1CCC(=O)O[C@H]1COCC[C@@H]1OP(=O)(O)OC[C@H](N)C(=O)O", "endpoint-value": "< 5.50"}
{"smiles-code": "CCCCCCCCCCCOc1ccccc1CCC(=O)O[C@H]1CCOC[C@H]1OP(=O)(O)OC[C@H](N)C(=O)O", "endpoint-value": "< 5.50"}
{"smiles-code": "CCCCCCCC/C=C\\CCCCCCCC(=O)O[C@@H](C)COP(=O)(O)OC[C@H](N)C(=O)O", "endpoint-value": "< 5.50"}

**Q:** Param item = `CCCCCCCC/C=C\CCCCCCCC(=O)OCCOP(=O)(O)OC[C@H](N)C(=O)O` ; retrieve measured pEC50.
**A:** < 5.50

----------
Target: G protein-coupled receptor 34a (Danio rerio, UniProt Q6XCC7)
Sequence (Q6XCC7 1-389): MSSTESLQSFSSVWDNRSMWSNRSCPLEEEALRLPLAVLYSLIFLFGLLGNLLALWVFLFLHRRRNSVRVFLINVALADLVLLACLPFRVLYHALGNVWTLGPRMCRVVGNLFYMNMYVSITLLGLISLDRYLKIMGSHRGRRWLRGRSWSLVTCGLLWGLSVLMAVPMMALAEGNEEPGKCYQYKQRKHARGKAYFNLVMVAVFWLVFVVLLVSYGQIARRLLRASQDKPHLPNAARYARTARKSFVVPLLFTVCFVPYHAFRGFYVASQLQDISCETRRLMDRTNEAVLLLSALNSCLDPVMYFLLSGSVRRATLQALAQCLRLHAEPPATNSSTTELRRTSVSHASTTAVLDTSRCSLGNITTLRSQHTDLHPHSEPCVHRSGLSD
Experiment: Agonist activity at zebrafish GPR34 type a expressed in HEK293 cells co-transfected with AP-TGFalpha/Galphaq/i1 assessed as induction of ectodomain shedding of membrane bound AP-TGFalpha after 1 hr by p-NPP substrate based microplate reader analysis
property: EC50

**Q:** Item: `CCOC[C@H](COC(=O)CCc1ccccc1OCc1cccc(Oc2ccccc2)c1)OP(=O)(O)OC[C@H](N)C(=O)O` Test system: G protein-coupled receptor 34a (Danio rerio, UniProt Q6XCC7) Read-out: EC50 Value: ?
**A:** > 3.16 µM
